These entries and their values trace back to patent US12370192B2.

Molecular target: human GPR139 receptor (Homo sapiens)
Construct: expressed in transfected cells; host or cells: T-REx-CHO (Thermo Fisher Scientific), doxycycline-induced
Assay: GPR139 Competition Binding (membrane-based, tritium-labeled ligand)
Settings: T-REx-CHO membranes with human GPR139; 6.5 nM tritium-labeled ligand; 11-point curve, 30 μM maximum concentration; read-out: GPR139 Binding Affinity (pKi) (converted)
measured.endpoint: log10(Ki) (log10 of the value in nM)

{"columns": ["molecule", "study.target", "log10(Ki)"],
 "data": [
  ["Cc1ccc([C@H](C)NC(=O)Cn2nc(C)c3c(cnn3C)c2=O)cc1 [Example 74]", "human GPR139 receptor (Homo sapiens)", 3.39],
  ["Cc1ccc([C@H](C)NC(=O)Cn2nc(C)c3cnn(-c4ccccc4)c3c2=O)c(F)c1 [Example 6]", "human GPR139 receptor (Homo sapiens)", 1.37],
  ["Cc1nn(CC(=O)N[C@@H](C)c2cccc(F)c2)c(=O)c2c1c(C)nn2C [Example 154]", "human GPR139 receptor (Homo sapiens)", 2.69],
  ["Cc1cc(Cl)ccc1[C@H](C)NC(=O)Cn1ncc2c(c(C)cn2C2CC2)c1=O [Example 63]", "human GPR139 receptor (Homo sapiens)", 0.30],
  ["Cc1nn(C)c2c(C)nn(CC(=O)N[C@@H](C)c3ccc(C(F)(F)F)cc3)c(=O)c12 [Example 114]", "human GPR139 receptor (Homo sapiens)", 2.31],
  ["Cc1ccc([C@H](C)NC(=O)Cn2nc(C)c3c(ncn3C)c2=O)cc1 [Example 29]", "human GPR139 receptor (Homo sapiens)", 4.48],
  ["Cc1ccc([C@H](C)NC(=O)Cn2ncc3c(c(C)nn3C3CC3)c2=O)cc1 [Example 122]", "human GPR139 receptor (Homo sapiens)", 2.39],
  ["C[C@H](NC(=O)Cn1ncc2c(c(C3CC3)nn2C)c1=O)c1ccc(C(F)(F)F)cc1 [Example 115]", "human GPR139 receptor (Homo sapiens)", 1.77],
  ["Cc1cn(C2CC2)c2cnn(CC(=O)N[C@@H](C)c3ccccc3)c(=O)c12 [Example 146]", "human GPR139 receptor (Homo sapiens)", 1.54],
  ["Cc1nn(C23CC(C2)C3)c2cnn(CC(=O)N[C@@H](C)c3ccc(C(F)(F)F)cc3)c(=O)c12 [Example 156]", "human GPR139 receptor (Homo sapiens)", 2.52],
  ["Cc1ccc([C@H](C)NC(=O)Cn2ncc3c(c(C(F)(F)F)nn3C)c2=O)c(F)c1 [Example 170]", "human GPR139 receptor (Homo sapiens)", 1.32],
  ["Cc1nn(C2CCC2)c2cnn(CC(=O)N[C@@H](C)c3ccc(C(F)(F)F)cc3)c(=O)c12 [Example 155]", "human GPR139 receptor (Homo sapiens)", 2.25],
  ["COc1ccc([C@H](C)NC(=O)Cn2nc(C)c3cnn(-c4ccccc4)c3c2=O)cc1 [Example 2]", "human GPR139 receptor (Homo sapiens)", 2.94],
  ["Cc1ccc([C@H](C)NC(=O)Cn2nc(C)c3cnn(C(C)(C)C)c3c2=O)cc1 [Example 13]", "human GPR139 receptor (Homo sapiens)", 1.32],
  ["CC(C)c1nn(CC(=O)N[C@@H](C)c2ccc(OC(F)(F)F)cc2)c(=O)c2c1cnn2-c1ccccc1 [Example 7]", "human GPR139 receptor (Homo sapiens)", 2.21],
  ["C[C@H](NC(=O)Cn1ncc2c(C3CC3)cn(C)c2c1=O)c1ccc(C(F)(F)F)cc1 [Example 159]", "human GPR139 receptor (Homo sapiens)", 1.90]
]}

====

Molecular target: human GPR139 receptor (Homo sapiens, UniProt Q6DWJ6)
Construct: expressed in transfected cells; host or cells: T-REx-CHO (Thermo Fisher Scientific), doxycycline-induced
Experiment: GPR139 Competition Binding (membrane-based, tritium-labeled ligand)
Details: T-REx-CHO membranes with human GPR139; 6.5 nM tritium-labeled ligand; 11-point curve, 30 μM maximum concentration; read-out: GPR139 Binding Affinity (pKi) (converted)

{"columns": ["compound", "Ki, nM"],
 "data": [
  ["COc1ccc([C@H](C)NC(=O)Cn2nc(C)c3c(c(C4CC4)nn3C)c2=O)cc1", 74.1],
  ["Cc1cc(C)c([C@H](C)NC(=O)Cn2nc(C)c3c(C)nn(C4CC4)c3c2=O)c(C)c1", 0.759],
  ["Cc1nn(CC(=O)N[C@@H](C)c2ccc(OC(F)(F)F)cc2)c(=O)c2c1cnn2-c1ccccc1", 93.3],
  ["Cc1nn(CC(=O)NC(C)c2ccc3c(c2)OCCO3)c(=O)c2c1c(C)nn2C1CC1 (centres unmarked)", 97.7],
  ["Cc1ccc([C@H](C)NC(=O)Cn2ncc3c(cnn3C)c2=O)cc1", 5250],
  ["Cc1nn(C)c2cnn(CC(=O)N[C@@H](C)c3ccc(OC(F)(F)F)cc3)c(=O)c12", 162],
  ["Cc1ccc([C@H](C)NC(=O)Cn2nc(C)c3cnn(C)c3c2=O)c(F)c1", 74.1],
  ["Cc1nn(C2CC2)c2cnn(CC(=O)N[C@@H](C)c3cccc(F)c3F)c(=O)c12", 257],
  ["Cc1nn(CC(=O)N[C@@H](C)c2ccc(OC(F)(F)F)cc2)c(=O)c2cnn(C)c12", 3470],
  ["COc1ccc([C@H](C)NC(=O)Cn2ncc3c(c(C)nn3C(C)C)c2=O)cc1", 2950],
  ["Cc1ccc([C@H](C)NC(=O)Cn2ncc3c(c(C(F)(F)F)nn3C)c2=O)cc1", 75.9],
  ["COc1ccc([C@H](C)NC(=O)Cn2ncc3c(c(C)nn3C)c2=O)c(F)c1", 1070],
  ["C[C@H](NC(=O)Cn1ncc2ccn(C)c2c1=O)c1ccccc1", 1740],
  ["COc1ccc([C@H](C)NC(=O)Cn2ncc3c(c(C4CC4)nn3C(C)C)c2=O)cc1", 355],
  ["Cc1ccc([C@H](C)NC(=O)Cn2ncc3ncn(C)c3c2=O)cc1", 30200],
  ["Cc1ccc([C@H](C)NC(=O)Cn2ncc3c(c(C(F)(F)F)nn3C)c2=O)cc1F", 24],
  ["Cc1ccc([C@H](C)NC(=O)Cn2nc(C(C)C)c3cnn(-c4ccccc4)c3c2=O)cc1", 72.4]
]}

====

Some compounds, each annotated with its measured log10 of Ki.
Molecular target: human GPR139 receptor (Homo sapiens, UniProt Q6DWJ6)
Construct: expressed in transfected cells; host or cells: T-REx-CHO (Thermo Fisher Scientific), doxycycline-induced
Sequence (Q6DWJ6 1-353): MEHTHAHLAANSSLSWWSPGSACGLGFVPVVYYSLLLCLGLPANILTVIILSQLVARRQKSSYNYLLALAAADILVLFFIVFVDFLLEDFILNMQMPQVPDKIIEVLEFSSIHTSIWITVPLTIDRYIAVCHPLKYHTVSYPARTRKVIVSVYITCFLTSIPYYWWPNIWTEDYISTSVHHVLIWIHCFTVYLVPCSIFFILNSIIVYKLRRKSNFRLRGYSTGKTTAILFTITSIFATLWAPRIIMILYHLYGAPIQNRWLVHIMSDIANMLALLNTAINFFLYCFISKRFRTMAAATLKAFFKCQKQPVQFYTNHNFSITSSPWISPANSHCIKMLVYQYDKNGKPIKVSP
Test: GPR139 Competition Binding (membrane-based, tritium-labeled ligand)
Settings: T-REx-CHO membranes with human GPR139; 6.5 nM tritium-labeled ligand; 11-point curve, 30 μM maximum concentration; read-out: GPR139 Binding Affinity (pKi) (converted)
measured.endpoint: log10 of Ki (log10 of the value in nM)

{"columns": ["smiles.record", "log10 of Ki"],
 "data": [
  ["Cc1ccc([C@H](C)NC(=O)Cn2nc(C)c3c(c(C)nn3C)c2=O)cc1", 2.25],
  ["COc1ccc([C@H](C)NC(=O)Cn2ncc3c(c(C(C)C)nn3C)c2=O)cc1", 3.01],
  ["Cc1ccc([C@H](C)NC(=O)Cn2ncc3c(C)nn(C)c3c2=O)cc1", 2.34],
  ["Cc1ccc([C@H](C)NC(=O)Cn2ncc3c(cnn3C)c2=O)c(F)c1", 3.01],
  ["Cc1ccc([C@H](C)NC(=O)Cn2ncc3c(c(C)nn3C3CC3)c2=O)c(F)c1", 1.88],
  ["Cc1nn(CC(=O)N[C@@H](C)c2ccc(C(F)(F)F)cn2)c(=O)c2c1c(C)nn2C", 4.18],
  ["[2H]C([2H])([2H])c1ccc([C@H](C)NC(=O)Cn2ncc3c(cnn3C(C)C)c2=O)cc1", 3.37],
  ["COc1ccc([C@H](C)NC(=O)Cn2ncc3c(c(C)nn3C3CC3)c2=O)c(F)c1", 2.97],
  ["Cc1nn(C2CC2)c2cnn(CC(=O)N[C@@H](C)c3ccc(C(F)(F)F)cn3)c(=O)c12", 4.48],
  ["COc1ccc([C@H](C)NC(=O)Cn2ncc3c(c(C)nn3C3CC3)c2=O)cc1C", 4.07],
  ["Cc1ccc([C@H](C)NC(=O)Cn2nc(C)c3c(cnn3C3CC3)c2=O)c(F)c1", 2.52],
  ["Cc1ccc(C)c([C@H](C)NC(=O)Cn2ncc3c(c(C)nn3C3CC3)c2=O)c1", 4.59],
  ["Cc1nn(C)c2cnn(CC(=O)N[C@@H](C)c3c(F)cccc3F)c(=O)c12", 2.98],
  ["Cc1nn(CC(=O)N[C@@H](C)c2ccc(C(F)(F)F)cc2)c(=O)c2c1cnn2C(C)(C)C", 1.57],
  ["Cc1cn(C2CC2)c2cnn(CC(=O)N[C@@H](C)c3ccc(F)cc3Cl)c(=O)c12", -0.10],
  ["Cc1cc([C@H](C)NC(=O)Cn2ncc3c(c(C)nn3C3CC3)c2=O)ccc1F", 2.77],
  ["Cc1ccc([C@H](C)NC(=O)Cn2nc(C)c3c(c(C)nn3C(C)C)c2=O)cc1", 2.58],
  ["Cc1ccc([C@H](C)NC(=O)Cn2nc(C)c3c(c(C)nn3C)c2=O)c(F)c1", 1.63],
  ["Cc1nn(C2CC2)c2cnn(CC(=O)N[C@@H](C)c3ccc(F)cc3F)c(=O)c12", 2.41],
  ["COc1cc([C@H](C)NC(=O)Cn2ncc3c(c(C)nn3C3CC3)c2=O)ccc1F", 3.35],
  ["Cc1ccc([C@H](C)NC(=O)Cn2ncc3c(c(C)nn3C)c2=O)cc1", 2.40],
  ["Cc1ccc([C@H](C)NC(=O)Cn2ncc3c(c(C)nn3C(C)C)c2=O)c(F)c1", 2.00],
  ["Cc1ccc([C@H](C)NC(=O)Cn2ncc3c(c(C)nn3C3CC3)c2=O)cc1F", 1.58],
  ["Cc1nn(C)c2cnn(CC(=O)N[C@@H](C)c3ccc(C(F)(F)F)cc3)c(=O)c12", 2.55],
  ["Cc1nn(CC(=O)N[C@@H](C)c2ccc(C(F)(F)F)cc2)c(=O)c2cnn(C)c12", 3.28],
  ["Cc1nn(CC(=O)N[C@@H](C)c2ccc(F)cc2Cl)c(=O)c2c1c(C)nn2C1CC1", -0.40],
  ["C[C@H](NC(=O)Cn1ncc2c(ncn2C)c1=O)c1ccc(C(F)(F)F)cc1", 3.77],
  ["C[C@H](NC(=O)Cn1ncc2c(C3CC3)nn(C)c2c1=O)c1ccc(OC(F)(F)F)cc1", 2.25],
  ["Cc1nn(C2CC2)c2cnn(CC(=O)N[C@@H](C)c3ccc(F)cc3Cl)c(=O)c12", 1.63],
  ["COc1ccc([C@H](C)NC(=O)Cn2ncc3ccn(C)c3c2=O)cc1", 3.25],
  ["Cc1nn(CC(=O)N[C@@H](C)c2ccc(OC(F)(F)F)cc2)c(=O)c2c(C3CC3)nn(C)c12", 1.37],
  ["Cc1ccc([C@H](C)NC(=O)Cn2ncc3c(c(C)cn3C3CC3)c2=O)c(C)c1", 0.57],
  ["Cc1ccc([C@H](C)NC(=O)Cn2ncc3c(C4CC4)cn(C)c3c2=O)cc1", 1.68]
]}
